Molecular target: Human recombinant full length HDAC6 (Homo sapiens (Human), UniProt Q9UBN7)
Sequence (Q9UBN7 whole entry): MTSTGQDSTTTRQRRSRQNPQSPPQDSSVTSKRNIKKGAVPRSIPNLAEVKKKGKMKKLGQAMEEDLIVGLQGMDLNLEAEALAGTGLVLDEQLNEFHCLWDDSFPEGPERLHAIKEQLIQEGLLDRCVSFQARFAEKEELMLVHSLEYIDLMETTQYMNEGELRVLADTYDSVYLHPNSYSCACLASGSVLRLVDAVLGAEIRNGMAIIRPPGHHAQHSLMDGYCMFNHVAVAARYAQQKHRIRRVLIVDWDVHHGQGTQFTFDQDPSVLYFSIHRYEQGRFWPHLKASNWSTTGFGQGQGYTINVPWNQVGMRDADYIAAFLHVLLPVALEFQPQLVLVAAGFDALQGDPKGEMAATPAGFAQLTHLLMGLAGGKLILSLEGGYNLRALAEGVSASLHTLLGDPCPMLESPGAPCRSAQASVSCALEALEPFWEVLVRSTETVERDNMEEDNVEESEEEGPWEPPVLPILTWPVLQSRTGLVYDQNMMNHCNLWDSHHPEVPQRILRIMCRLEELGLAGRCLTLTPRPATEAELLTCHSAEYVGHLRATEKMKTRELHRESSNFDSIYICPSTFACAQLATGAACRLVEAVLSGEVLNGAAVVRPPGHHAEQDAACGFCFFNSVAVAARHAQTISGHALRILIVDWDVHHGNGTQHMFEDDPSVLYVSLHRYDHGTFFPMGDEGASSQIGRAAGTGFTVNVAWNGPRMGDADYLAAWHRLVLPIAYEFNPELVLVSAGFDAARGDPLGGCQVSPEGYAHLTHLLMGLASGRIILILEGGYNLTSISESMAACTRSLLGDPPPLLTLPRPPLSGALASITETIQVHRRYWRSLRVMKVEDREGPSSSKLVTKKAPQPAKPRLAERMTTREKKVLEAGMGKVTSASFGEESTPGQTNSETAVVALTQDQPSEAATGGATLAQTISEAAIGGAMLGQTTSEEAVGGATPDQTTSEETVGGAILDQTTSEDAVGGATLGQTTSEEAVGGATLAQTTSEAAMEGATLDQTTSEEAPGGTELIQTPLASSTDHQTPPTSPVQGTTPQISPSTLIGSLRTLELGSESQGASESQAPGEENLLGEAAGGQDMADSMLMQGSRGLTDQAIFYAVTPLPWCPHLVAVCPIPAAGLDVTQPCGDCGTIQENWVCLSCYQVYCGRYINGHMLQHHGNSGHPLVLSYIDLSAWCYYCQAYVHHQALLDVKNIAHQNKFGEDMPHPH
Assay: Test 4: HDAC6 assay
Type: biochemical
Conditions: Test 4; substrate 5 μM acetyl-Gly-Ala-Lys(acetyl)-AMC
// reported IC50 for each item listed
State the answer as a number, implicitly in µM.

Would you please look over these solved cases?
> print(dat)
                                   compound  experimental.endpoint  unit.abbreviation  test.result
1  O=C(Nc1ccncc1)c1ccc(-c2noc(C(F)(F)F)n2)cc1 [Example 47]                   IC50                 µM          2.1
2  O=C(c1ccc(-c2noc(C(F)(F)F)n2)cc1)N1CCCC1 [Example 23]                   IC50                 µM            6
3  CCN(C[C@@H](C)NC(=O)c1ccc(-c2noc(C(F)(F)F)n2)cc1F)C(C)C [Example 152]                   IC50                 µM          2.4
4  CON(C)C(=O)Cc1ccc(-c2noc(C(F)(F)F)n2)cc1 [Example 11]                   IC50                 µM          8.9
5  O=C(NC1CCOCC1)c1ccc(-c2noc(C(F)(F)F)n2)cc1 [Example 57]                   IC50                 µM          6.5
6  O=C(NCC1CC1)c1ccc(-c2noc(C(F)(F)F)n2)cc1 [Example 26]                   IC50                 µM          3.2

Requested read-out: IC50. Entry: CNC(=O)c1ccc(-c2noc(C(F)(F)F)n2)cc1 [Example 2]
3.2

One more compound: CN1CC[C@@H](NC(=O)c2ccc(-c3noc(C(F)(F)F)n3)cc2)C1 [Example 153]
3

Note, next up: CC(C)(C)c1cc(NC(=O)c2ccc(-c3noc(C(F)(F)F)n3)cc2)ccn1 [Example 69]
6.8

What do we get for CN(C)S(=O)(=O)c1ccc(-c2noc(C(F)(F)F)n2)cc1 [Example 114] ?
9.1

Next entry: CCCN(C)C[C@@H](C)NC(=O)c1ccc(-c2noc(C(F)(F)F)n2)cc1 [Example 139]
9.6

Also check CC(CO)NC(=O)c1ccc(-c2noc(C(F)(F)F)n2)cc1F (centres unmarked) [Example 91]
5.1
